Reported IC50 values follow for various molecules
Target: Recombinant human cathepsin A (Homo sapiens)
Construct: Recombinant human cathepsin A (residues 29-480, with a C-terminal 10-His tag); 10-His (C); purchased R&D Systems 1049-SE
Assay: Cathepsin A inhibitory activity
Assay type: biochemical
Conditions: read-out: Activity (2): Cathepsin A inhibitory activity (IC50 class)

Answered cases to consult:
Molecule	Tested System	Observed Measurement
COc1cc(C(=O)N[C@@H](CC(=O)O)c2ccc(Cl)cc2Cl)nn1-c1ccccc1F [Example 673]	Recombinant human cathepsin A (Homo sapiens)	< 100 nM
COc1cc(C(=O)NC(CC(=O)O)c2ccc(-c3ccc(F)cc3)cc2)nn1-c1ccccc1F (stereo not shown) [Example 543]	Recombinant human cathepsin A (Homo sapiens)	100 to 1000 nM

Challenge: Specify IC50 for O=C(O)CC(NC(=O)c1cc(O)n(-c2ccccc2F)n1)c1ccc(-c2ccc(C(F)(F)F)cc2)cc1 (stereo not shown) [Example 576] and stop.
Response given: 100 to 1000 nM

Challenge: Supply reported IC50 belonging to this molecule: COc1cc(C(=O)NC(CC(=O)O)c2ccc(-c3ccc(F)cc3)cc2)nn1-c1ccccc1 (stereo not shown) [Example 544]
Response given: 1000 to 30000 nM

Challenge: Give the reported value of IC50 for this record: Cc1cccc(C(CC(=O)O)NC(=O)c2cc(OCC3CC3)n(-c3ccccc3F)n2)c1C (stereo not shown) [Example 703]
Response given: < 100 nM

Challenge: # return recorded IC50 for input CCOc1cc(C(=O)N[C@@H](CC(=O)O)c2cccc(OC)c2)nn1-c1ccccc1Cl [Example 731]
Response given: 100 to 1000 nM

Challenge: Check the records and state IC50 for O=C(O)CC(NC(=O)c1cc(O)n(-c2ccccc2)n1)c1ccc(-n2cccn2)cc1 (stereo not shown) [Example 578]
Response given: 1000 to 30000 nM

Challenge: State its IC50 for this molecule: CCOc1cc(C(=O)N[C@@H](CC(=O)O)c2ccccc2C(F)(F)F)nn1-c1ccccc1Cl [Example 741]
Response given: 100 to 1000 nM

Challenge: Give recorded IC50. O=C(O)CC(NC(=O)c1cc(O)n(-c2ccccc2F)n1)c1ccc(-c2ccccc2F)cc1 (stereo not shown) [Example 584]
Response given: 100 to 1000 nM

Challenge: Retrieve IC50 measured for Cc1ccccc1[C@H](CC(=O)O)NC(=O)c1cc(OCC(C)(C)C)n(-c2ccccc2F)n1 [Example 632] and print it.
Response given: < 100 nM

Challenge: // fetch IC50 given entry Cc1ccccc1[C@H](CC(=O)O)NC(=O)c1cc(O)n(-c2ccc(S(N)(=O)=O)cc2)n1 [Example 602]
Response given: 1000 to 30000 nM

Challenge: Tell us which IC50 value is on record for Cc1ccc([C@H](CC(=O)O)NC(=O)c2cc(OC[C@@](C)(O)C(C)C)n(-c3ccccc3F)n2)cc1 [Example 766]
Response given: < 100 nM

Challenge: Tell me IC50 reported for Cc1ccccc1[C@H](CC(=O)O)NC(=O)c1cc(OCC2CCOCC2)n(-c2ccccc2F)n1 [Example 627]
Response given: < 100 nM

Challenge: Read off the recorded IC50 for CC(C)(C)[C@@](C)(O)COc1cc(C(=O)N[C@@H](CC(=O)O)c2cccc(C#N)c2)nn1-c1ccccc1F [Example 778]
Response given: < 100 nM

Challenge: State, in one line, measured IC50 of CCC(O)(CC)COc1cc(C(=O)N[C@@H](CC(=O)O)c2ccccc2C)nn1-c1ccccc1F [Example 756]
Response given: < 100 nM

Challenge: Look up and state reported IC50 for Cc1ccccc1[C@H](CC(=O)O)NC(=O)c1cc(OCC2(C)COC2)n(-c2ccccc2F)n1 [Example 663]
Response given: < 100 nM

Challenge: Give IC50 for the following molecule: COc1ccc(C(F)(F)F)cc1C(CC(=O)O)NC(=O)c1cc(O)n(-c2ccccc2F)n1 (stereo not shown) [Example 554]
Response given: 1000 to 30000 nM

Challenge: Let me know recorded IC50 for O=C(O)CC(NC(=O)c1cc(O)n(-c2ccccc2Cl)n1)c1ccc(-c2ccc(C(F)(F)F)cc2)cc1 (stereo not shown) [Example 581] , thanks.
Response given: 1000 to 30000 nM

Challenge: Quickly give me recorded IC50 for Cc1cc(COc2cc(C(=O)N[C@@H](CC(=O)O)c3ccccc3C)nn2-c2ccccc2F)no1 [Example 657]
Response given: < 100 nM

----------
Molecular target: Recombinant human cathepsin A (Homo sapiens)
Construct: Recombinant human cathepsin A (residues 29-480, with a C-terminal 10-His tag); 10-His (C); purchased R&D Systems 1049-SE
Test: Cathepsin A inhibitory activity
Assay type: biochemical
Details: pharmacological test "Cathepsin A inhibitory activity"; IC50 given as class A/B/C; read-out: Activity (2): Cathepsin A inhibitory activity, IC50 class
Measure: IC50

Molecule	IC50
Cc1cccc(C(CC(=O)O)NC(=O)c2cc(O)n(-c3ccccc3Cl)n2)c1C (stereo not shown)	100 to 1000 nM
O=C(O)CC(NC(=O)c1cc(O)n(-c2ccccc2Cl)n1)c1cccc(C(F)(F)F)c1F (stereo not shown)	100 to 1000 nM
Cc1cccc(C(CC(=O)O)NC(=O)c2cc(O)n(-c3cccc(Cl)c3)n2)c1C (stereo not shown)	100 to 1000 nM

Please look at the following molecule next.
Challenge: Assign IC50 to the following record: O=C(O)CC(NC(=O)c1cc(O)n(-c2ccccc2F)n1)c1ccc(C(F)(F)F)cc1F (stereo not shown)
Response given: 100 to 1000 nM

----------
Biological target: Recombinant human cathepsin A (Homo sapiens, UniProt P10619)
Construct: Recombinant human cathepsin A (residues 29-480, with a C-terminal 10-His tag); 10-His (C); purchased R&D Systems 1049-SE
Sequence (P10619 29-312 limits assumed): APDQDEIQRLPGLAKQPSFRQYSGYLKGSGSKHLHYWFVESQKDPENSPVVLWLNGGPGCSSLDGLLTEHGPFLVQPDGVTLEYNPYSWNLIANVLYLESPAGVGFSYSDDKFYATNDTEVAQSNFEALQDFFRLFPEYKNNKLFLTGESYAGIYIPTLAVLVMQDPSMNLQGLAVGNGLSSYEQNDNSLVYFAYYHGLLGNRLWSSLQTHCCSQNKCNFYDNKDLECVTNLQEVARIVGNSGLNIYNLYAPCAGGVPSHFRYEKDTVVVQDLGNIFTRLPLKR
Sequence (P10619 327-480 limits assumed): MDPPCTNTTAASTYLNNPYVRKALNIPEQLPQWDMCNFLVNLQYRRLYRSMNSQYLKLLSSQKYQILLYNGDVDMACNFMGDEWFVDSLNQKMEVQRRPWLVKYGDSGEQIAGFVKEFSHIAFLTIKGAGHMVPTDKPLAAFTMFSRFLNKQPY
Test: Cathepsin A inhibitory activity
Type: biochemical
Settings: recombinant human cathepsin A 833 ng/ml, Bodipy FL-labeled bradykinin 2 μM, pH 5.5; read-out: CATH-A IC50
Measure: log10 of IC50 (log10 of the value in nM)
# values: log10(IC50), units nM

Below, 10 molecules whose answers are already recorded.
Molecule	Tested System	log10 of IC50
Cc1ccc(C(CC(=O)O)NC(=O)c2cc(O)n(-c3ccccc3F)n2)c(F)c1 (centres unmarked) [Example 555]	Recombinant human cathepsin A (Homo sapiens, UniProt P10619)	2.38
O=C(O)CC(NC(=O)c1cc(O)n(-c2ccccc2)n1)c1cc(F)ccc1Cl (centres unmarked) [Example 495]	Recombinant human cathepsin A (Homo sapiens, UniProt P10619)	2.33
O=C(O)CC(NC(=O)c1cc(O)n(-c2ccccc2F)n1)c1ccc(N2CCCC2)cc1 (centres unmarked) [Example 566]	Recombinant human cathepsin A (Homo sapiens, UniProt P10619)	3.48
COc1cccc(F)c1C(CC(=O)O)NC(=O)c1cc(O)n(-c2ccc(Cl)cc2)n1 (centres unmarked) [Example 469]	Recombinant human cathepsin A (Homo sapiens, UniProt P10619)	2.93
O=C(O)CC(NC(=O)c1cc(O)n(-c2ccccc2F)n1)c1ccc(-n2cncn2)cc1 (centres unmarked) [Example 550]	Recombinant human cathepsin A (Homo sapiens, UniProt P10619)	2.80
Cc1c(F)cccc1C(CC(=O)O)NC(=O)c1cc(O)n(-c2ccccc2Cl)n1 (centres unmarked) [Example 455]	Recombinant human cathepsin A (Homo sapiens, UniProt P10619)	2.19
Cc1ccc([C@H](CC(=O)O)NC(=O)c2cc(O)n(-c3ccccc3)n2)cc1 [Example 445]	Recombinant human cathepsin A (Homo sapiens, UniProt P10619)	2.11
COc1cccc(F)c1C(CC(=O)O)NC(=O)c1cc(O)n(-c2ccccc2)n1 (centres unmarked) [Example 441]	Recombinant human cathepsin A (Homo sapiens, UniProt P10619)	2.71
O=C(O)C[C@H](NC(=O)c1cc(O)n(-c2ccc(F)cc2F)n1)c1ccccc1Cl [Example 502]	Recombinant human cathepsin A (Homo sapiens, UniProt P10619)	2.06
O=C(O)CC(NC(=O)c1cc(O)n(-c2ccccc2Cl)n1)c1cccc(C(F)(F)F)c1F (centres unmarked) [Example 221]	Recombinant human cathepsin A (Homo sapiens, UniProt P10619)	2.51

Challenge: Indicate its recorded log10 of IC50; the molecule in question is Cc1ccccc1[C@H](CC(=O)O)NC(=O)c1cc(OC[C@@](C)(O)C(C)C)n(-c2ccccc2F)n1 [Example 870]
Response given: 1.88

Challenge: Please list log10 of IC50 recorded for the molecule O=C(O)CC(NC(=O)c1cc(O)n(-c2ccccc2)n1)c1ccc(-n2cncn2)cc1 (centres unmarked) [Example 563]
Response given: 3.24

Challenge: Note down log10 of IC50 recorded for O=C(O)CC(NC(=O)c1cc(O)n(-c2ccccc2)n1)c1cc(Cl)ccc1Cl (centres unmarked) [Example 444]
Response given: 1.92

Challenge: Respond only with log10 of IC50 recorded for O=C(O)C[C@H](NC(=O)c1cc(O)n(-c2ccccc2)n1)c1ccccc1Cl [Example 446]
Response given: 2.08

Challenge: Consider the molecule Cc1ccc([C@H](CC(=O)O)NC(=O)c2cc(O)n(-c3ccc(F)cc3F)n2)cc1 [Example 454] and give its recorded log10 of IC50.
Response given: 2.27

Challenge: # return recorded log10 of IC50 for input Cc1c(F)cccc1C(CC(=O)O)NC(=O)c1cc(O)n(-c2ccccc2F)n1 (centres unmarked) [Example 516]
Response given: 2.01

Challenge: Fill in reported log10 of IC50 for this entry: O=C(O)CC(NC(=O)c1cc(O)n(-c2ccccc2Cl)n1)c1cc(F)ccc1C(F)(F)F (centres unmarked) [Example 460]
Response given: 2.07

Challenge: For Cc1ccc(F)cc1C(CC(=O)O)NC(=O)c1cc(O)n(-c2ccc(F)cc2)n1 (centres unmarked) [Example 492] , write its log10 of IC50.
Response given: 2.24

Challenge: Report log10 of IC50, nothing else, for this molecule: Cc1ccc([C@H](CC(=O)O)NC(=O)c2cc(OC[C@@](C)(O)C(C)C)n(-c3ccccc3F)n2)cc1 [Example 766]
Response given: -0.16

Challenge: Give me measured log10 of IC50, please, for this molecule: Cc1c(F)cccc1C(CC(=O)O)NC(=O)c1cc(O)n(-c2cccc(Cl)c2)n1 (centres unmarked) [Example 508]
Response given: 2.14
